experimental-target: MYLK (human)
method-description: radiometric filter-binding kinase assay, Kinase HotSpot
measurement-setup: compound 0.5 µM; ATP 10 µM

compound-structure	experimental-target	residual activity
Nc1cccc(-c2cc3c(Oc4cccc(O)c4)ncnc3[nH]2)c1	MYLK (human)	81.7%
Cc1ccc(S(=O)(=O)/C=C/C#N)cc1	MYLK (human)	93.9%
N#C/C(=C(/N)Sc1ccc(N)cc1)c1ccccc1C(F)(F)F	MYLK (human)	94.9%
CCN(CC)CCNC(=O)c1c(C)[nH]c(/C=C2\C(=O)Nc3ccc(F)cc32)c1C	MYLK (human)	25.6%
O=C1NC(=O)C(c2cn(CCCn3ccnc3)c3ccccc23)=C1Nc1ccccc1	MYLK (human)	81.6%
O=S(=O)(c1cccc2cnccc12)N1CCCNCC1	MYLK (human)	97.4%
N#CC(C#N)=C(N)/C(C#N)=C/c1ccc(O)cc1	MYLK (human)	101%
CCN(CC)C(=O)c1ccc(Nc2nc(OCC3CCCCC3)c3nc[nH]c3n2)cc1	MYLK (human)	91.6%
CNC(=O)c1cc(Oc2ccc(NC(=O)Nc3ccc(Cl)c(C(F)(F)F)c3)cc2)ccn1	MYLK (human)	93.7%
Oc1cccc(-c2nc(N3CCOCC3)c3oc4ncccc4c3n2)c1	MYLK (human)	77.1%
O=C1Nc2ccc(Cl)cc2/C1=C/c1cc(Cl)c(O)c(Cl)c1	MYLK (human)	62.3%
